tested system: T1, wild-type tau (441 amino acids; tau441; NP_005901.2) (human, UniProt P10636 1-758)
T1 construct: Unphosphorylated recombinant tau441 used in the wild-type tau ELISA; also called wt tau441; wtTau
T1 sequence (P10636 other isoform, or with tags, fused parts or gaps limits assumed): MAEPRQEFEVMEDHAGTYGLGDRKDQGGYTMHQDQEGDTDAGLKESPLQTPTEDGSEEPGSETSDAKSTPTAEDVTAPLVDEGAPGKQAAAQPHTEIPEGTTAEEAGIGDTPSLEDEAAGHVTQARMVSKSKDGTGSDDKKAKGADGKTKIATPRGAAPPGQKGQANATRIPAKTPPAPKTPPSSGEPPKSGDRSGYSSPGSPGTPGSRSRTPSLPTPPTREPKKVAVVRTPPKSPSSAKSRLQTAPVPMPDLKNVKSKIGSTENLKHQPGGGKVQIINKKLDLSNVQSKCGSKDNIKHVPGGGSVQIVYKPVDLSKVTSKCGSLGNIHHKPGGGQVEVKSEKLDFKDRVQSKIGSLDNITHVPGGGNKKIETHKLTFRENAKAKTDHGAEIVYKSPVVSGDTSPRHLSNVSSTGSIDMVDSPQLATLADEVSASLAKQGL
assay info: wild-type tau ELISA, ExpiCHO supernatant
experimental readout: binding result

binder="IPN002 antibody expressed from CB6-IPN002-LF2AH (TAU_ITR11) (antibody, V domains shown) VH: EVHLVESGGALVKPGGSLKLSCAASGFSFSKYGMSWVRQTPDKRLEWVATISSSGSRTYYPDSVKGQFTISRDNAKNTLYLQMSSLKSEDTAMYYCSISWDGAMDYWGQGTSVTVSS VL: DVLMTQTPLSLPVSLGDQASISCKSSQSIVHSNGNTYLEWYLQKPGQSPKLLVYKVSNRFSGVPDRFSGSGSGTDFTLKISRVEAEDLGTYYCFQGSLVPWAFGGGTKLEIK" result_value=binds
binder="IPN002 antibody expressed from CAG-IPN002-LF2AH (TAU_ITR9) (antibody, V domains shown) VH: EVHLVESGGALVKPGGSLKLSCAASGFSFSKYGMSWVRQTPDKRLEWVATISSSGSRTYYPDSVKGQFTISRDNAKNTLYLQMSSLKSEDTAMYYCSISWDGAMDYWGQGTSVTVSS VL: DVLMTQTPLSLPVSLGDQASISCKSSQSIVHSNGNTYLEWYLQKPGQSPKLLVYKVSNRFSGVPDRFSGSGSGTDFTLKISRVEAEDLGTYYCFQGSLVPWAFGGGTKLEIK" result_value=binds
